Property: fractional inhibitory concentration index (FICI); scope: individual molecules
system: Aspergillus flavus; assay: Synergistic antifungal activity against Aspergillus flavus ATCC 16870 assessed as fractional inhibitory concentration index incubated for 72 hrs in presence of polyoxin B by checker board assay; assay type: functional
READOUT_NAME: fractional inhibitory concentration index (FICI)

>>> df
                                   molecule                 tgt  result
0  O=C(/C=C/C(=O)N1CCCC12Cc1ccccc1NC2=O)Nc1ccc(F)cc1 (centres undefined)  Aspergillus flavus     1.5
1  O=C(/C=C/C(=O)N1CCCC12Cc1ccccc1NC2=O)Nc1ccccc1[N+](=O)[O-] (centres undefined)  Aspergillus flavus     1.5
2  O=C(/C=C/C(=O)N1CCCC12Cc1ccccc1NC2=O)Nc1ccc(Cl)c(F)c1 (centres undefined)  Aspergillus flavus       2
3  O=C(/C=C/C(=O)N1CCCC12Cc1ccccc1NC2=O)Nc1cccc([N+](=O)[O-])c1 (centres undefined)  Aspergillus flavus     1.5

* * *

tested on: Aspergillus fumigatus; assay: Antifungal activity against fluconazole resistant Aspergillus fumigatus GIMCC 3.19 assessed as reduction in fungal growth incubated for 24 hrs by two fold broth dilution method; assay type: functional
MIC listing for selected molecules.
READOUT_NAME: MIC

In [3]: df
Out[3]:
                                   molecule     result
0  O=C(/C=C/C(=O)N1CCCC12Cc1ccccc1NC2=O)Nc1ccc(Cl)cc1Cl (stereo not given)   64 µg/mL
1  O=C(/C=C/C(=O)N1CCCC12Cc1ccccc1NC2=O)Nc1ccc(Cl)c(F)c1 (stereo not given)  128 µg/mL
2  O=C(/C=C/C(=O)N1CCCC12Cc1ccccc1NC2=O)Nc1ccccc1[N+](=O)[O-] (stereo not given)   64 µg/mL
3  O=C(/C=C/C(=O)N1CCCC12Cc1ccccc1NC2=O)Nc1ccc(F)cc1 (stereo not given)  256 µg/mL
4  O=C(/C=C/C(=O)N1CCCC12Cc1ccccc1NC2=O)Nc1ccccc1Cl (stereo not given)   32 µg/mL

* * *

tested on: Aspergillus fumigatus; experiment: Antifungal activity against fluconazole resistant Aspergillus fumigatus GIMCC 3.19 assessed as reduction in fungal growth incubated for 24 hrs by two fold broth dilution method; assay type: functional
# Lookup of reported MIC keyed by entry
READOUT_NAME: MIC

In [3]: df
Out[3]:
                                   molecule      result
0  O=C(/C=C/C(=O)N1CCCC12Cc1ccccc1NC2=O)Nc1ccc(Cl)cc1 (stereo not drawn)     64 mg/L
1  OC(Cn1cncn1)(Cn1cncn1)c1ccc(F)cc1F [FLUCONAZOLE]  > 256 mg/L
2  O=C(/C=C/C(=O)N1CCCC12Cc1ccccc1NC2=O)Nc1cccc([N+](=O)[O-])c1 (stereo not drawn)     32 mg/L

* * *

test system: Aspergillus fumigatus; test: Antifungal activity against Aspergillus fumigatus GIMCC 3.19 assessed as fluconazole MIC incubated for 72 hrs by checker board assay; type: functional
READOUT_NAME: MIC (µg/mL)

>>> print(df.to_string())
                                   compound  value_unit  result
0  O=C(/C=C/C(=O)N1CCCC12Cc1ccccc1NC2=O)Nc1ccc(Cl)c(F)c1 (centres undefined)       µg/mL       1
1  O=C(/C=C/C(=O)N1CCCC12Cc1ccccc1NC2=O)Nc1ccccc1[N+](=O)[O-] (centres undefined)       µg/mL       2
2  O=C(/C=C/C(=O)N1CCCC12Cc1ccccc1NC2=O)Nc1cccc([N+](=O)[O-])c1 (centres undefined)       µg/mL       4
3  O=C(/C=C/C(=O)N1CCCC12Cc1ccccc1NC2=O)Nc1ccc(F)cc1 (centres undefined)       µg/mL       2
